- System: HepG2
- test: GSK_TCMDC: Percent inhibition of human HepG2 cell line. Test compounds present at 10uM.
- Assay type: functional

compound	tested.on	Inhibition
CC(C)(C)OC(=O)NCc1ccc(Nc2nnc(-c3cccc(C(=O)NCc4cc(C(F)(F)F)cc(C(F)(F)F)c4)c3)o2)cc1	HepG2	4%
COc1ccc2nc(-c3cc(-c4ccc(NC(C)=O)cc4)cnc3N)[nH]c2c1	HepG2	55%
CC(=O)Nc1ccc(CN2CCc3ccc(NS(=O)(=O)c4ccc(-c5cccc(C(F)(F)F)c5)cc4)cc3CC2)s1	HepG2	23%
CN(CC(=O)Nc1ccc(F)cc1)C(=O)c1ccc(-c2ccc(F)cc2)o1	HepG2	3%
Cl.O=C(CCc1ccccc1)N[C@H](Cc1c[nH]c2ccccc12)C(=O)N1CCC(NCc2ccc3c(c2)Cc2ccccc2-3)CC1	HepG2	53%
CCCCCCOc1ccc(C(=O)NCCCC2CCCN(CCCCCNC(=O)C=Cc3ccc(Cl)c(Cl)c3)C2)cc1 (stereo not drawn)	HepG2	20%
Cc1cc(Nc2cccc(Cl)c2)nc2ccc(NC(=O)c3ccc(=O)[nH]c3)cc12	HepG2	12%
COc1ccc(CNC(=O)c2cnc3cc(-c4c(C)noc4C)ccc3c2Nc2ccccc2C(C)(C)C)cc1.Cl	HepG2	9%

====

- Tested on: Plasmodium falciparum
- test: GSK_TCMDC: Inhibition of Plasmodium falciparum 3D7 in whole red blood cells, using parasite LDH activity as an index of growth. Test compounds present at 2uM
- Assay type: functional
experimental.readout: Inhibition (%)

molecule	tested.on	meas.value
CS(=O)(=O)O.CSc1ccc2ccccc2c1CNCCCCCCNCc1c(SC)ccc2ccccc12	Plasmodium falciparum	99
CC(N)(Cc1ccc(O)cc1)c1nnn[nH]1 (stereo not drawn)	Plasmodium falciparum	93
CCCCNCc1ccc(-c2nc(CN(CCCn3ccnc3)C(=O)C3COc4ccccc4O3)cs2)cc1.O=C(O)C(F)(F)F (stereo not drawn)	Plasmodium falciparum	93
c1ccc(CNc2nc(NCCc3c[nH]cn3)nc(NCc3cccc4ccccc34)n2)cc1	Plasmodium falciparum	91
O=C(Nc1cccc(CN2CCCN(Cc3ccc(O)cc3)CC2)c1)c1cc2ccccc2s1.O=C(O)C(F)(F)F	Plasmodium falciparum	100
O=C(Cc1cccc2ccccc12)NC1CCN(c2ccnc3cc(Cl)ccc23)C1.O=C(O)C(F)(F)F (stereo not drawn)	Plasmodium falciparum	82
Cc1[nH]c(C)c(-c2ccc(OCc3cc(C(F)(F)F)cc(C(F)(F)F)c3)nc2)c(=O)c1Br	Plasmodium falciparum	98
COc1cccc(C(=O)NCCOc2ccccc2)c1Oc1ccccc1	Plasmodium falciparum	98
CC(Nc1nncc(-c2cccc(F)c2)n1)c1ccc(F)cc1 (stereo not drawn)	Plasmodium falciparum	95
O=C(/C=C/c1ccc(CNCCN2CCOCC2)cc1)NCCc1ccccc1	Plasmodium falciparum	94
O=C(CSc1nccn1C1CCCCC1)Nc1cc(C(F)(F)F)ccc1Cl	Plasmodium falciparum	96
O=C(/C=C/c1ccc(Cl)c(Cl)c1)NCCCCCN1CCCN(C(=O)Nc2cccc(Cl)c2)CC1	Plasmodium falciparum	100
CS(=O)(=O)NCCCNCc1ccc(-c2ccc(-c3nc4cc(F)ccc4[nH]3)cc2)cc1.O=C(O)C(F)(F)F	Plasmodium falciparum	100
Cc1ccc(C)c(C2CCN(CCCCNC(=O)c3ccc(NC(=O)c4ccc(Cl)cc4)cc3)CC2)c1	Plasmodium falciparum	94
CC(C)(C)c1nn(-c2ccccc2)c2[nH]c(=O)c(CNCCc3ccccc3)cc12	Plasmodium falciparum	94
OC(CNCc1ccccc1OCc1ccccc1)c1cccc(Br)c1 (stereo not drawn)	Plasmodium falciparum	100
Cc1ccc(CN2CCC(Oc3cccc(NC(=O)c4ccc(C(F)(F)F)cc4)c3)CC2)cc1.O=C(O)C(F)(F)F	Plasmodium falciparum	92
COc1cc(NC(=O)c2nn(CCCN3CCC(N4CCCC4)CC3)cc2-c2ccc(Cl)c(Cl)c2)cc(OC)c1OC	Plasmodium falciparum	100
O=C(Nc1cccc(CN2CCCN(CCc3ccccc3)CC2)c1)c1ccc(Cl)c(Cl)c1.O=C(O)C(F)(F)F	Plasmodium falciparum	86
N#Cc1ccc(-c2ccc(C(=O)NCCCCN3CCC(c4cc(Br)c5c(c4O)CCCC5)CC3)cc2)cc1	Plasmodium falciparum	100
CC1(C)CNCc2cc(NC(=O)/C=C/c3ccc(Cl)cc3)ccc21.Cl	Plasmodium falciparum	82
COc1ccc2nccc([C@@H](O)CN3CCC(NCc4cc5cc(Cl)ccc5[nH]4)CC3)c2c1.O=C(O)C(=O)O	Plasmodium falciparum	99
CC(C)Sc1nc2c(c(=O)n1Cc1ccco1)C1(CCCCC1)Cc1ccccc1-2	Plasmodium falciparum	100
Br.CC(=O)Nc1nc(C)c(-c2csc(Nc3ccc(Cl)cc3)n2)s1	Plasmodium falciparum	96
Cc1cc(NC2CCCC2)nc(Nc2ccccc2F)n1	Plasmodium falciparum	97
CC1CC(C)CN(S(=O)(=O)c2cc(C(=O)Nc3cccc([N+](=O)[O-])c3)ccc2Br)C1 (stereo not drawn)	Plasmodium falciparum	100
CCC1CN2CCc3c([nH]c4ccc(OC)cc34)C2CC1CC1NCCc2cc(OC)c(OC)cc21.Cl (stereo not drawn)	Plasmodium falciparum	100
Cc1cccc(CN2CCC(C(=O)Nc3ccc(-c4nc5ccccc5[nH]4)cc3)CC2)n1	Plasmodium falciparum	96
CN1CCc2ccc(NC(=O)Nc3cccc(C(=O)c4ccccc4)c3)cc2C1	Plasmodium falciparum	83
CN(C)c1cc(NC(=O)Nc2ccccc2)c2ccccc2n1	Plasmodium falciparum	100
N#Cc1ccc2[nH]cc(CN3CCC4(CC3)CN(CCNCc3ccccc3)C(=O)O4)c2c1.O=C(O)C(F)(F)F	Plasmodium falciparum	100
CCNc1cc(C(=O)N[C@@H](Cc2ccccc2)[C@H](O)CNC(C)(C)Cc2cccc(OC)c2)cc(N2CCCC2=O)c1.O=CO	Plasmodium falciparum	99
Cc1cc(N/N=C/c2ccccc2[N+](=O)[O-])c2cc(C(F)(F)F)ccc2n1	Plasmodium falciparum	97
CCNC(C)(C)CN(Cc1ccc(-c2ccc(C(F)(F)F)cc2)cc1)C(=O)Cn1c(CCc2cccc(F)c2F)nc(=O)c2ccccc21.O=C(O)C(O)C(O)C(=O)O	Plasmodium falciparum	97
O=C(NC1CCC1)C1CCN(C(c2ccccc2)c2cc(F)cc(F)c2)CC1 (stereo not drawn)	Plasmodium falciparum	94
I.N=C(N)NCC=C(c1ccccc1)c1ccccc1	Plasmodium falciparum	94
O=C(Nc1cn(-c2ccc(OCc3cccc(F)c3)c(Cl)c2)c2ncncc12)c1ccncc1	Plasmodium falciparum	100
CCN(CC)c1ccc(C=CC(=O)NCCN2CCC(N(C)C3CCCCC3C)CC2)cc1 (stereo not drawn)	Plasmodium falciparum	88

====

- System: HepG2
- test: GSK_TCMDC: Percent inhibition of human HepG2 cell line. Test compounds present at 10uM.
- Type: functional
Response field label takes True when Inhibition is strictly below 10% and False in all other cases.

molecule	tested.on	classification
CN(C)C(=O)CN1CCN(c2ncnc(N3CCc4c([nH]c5ccccc45)[C@@H]3c3ccc4c(c3)CCO4)n2)CC1	HepG2	False
CN(c1ncc(-c2cccc(CNCc3ccccc3O)c2)cn1)C1CCCCC1	HepG2	False
COc1nc2c(CCN3CC[C@@H](NCc4cc(C#N)c5c(c4)CCO5)[C@@H](O)C3)ccnc2cc1F.Cl	HepG2	False
O=C(O)C(F)(F)F.c1cc(CN2CCN(CCN3CCOCC3)CC2)cc(-c2csc(-c3nc4ccccc4[nH]3)c2)c1	HepG2	False
CCn1c(-c2nonc2N)nc2c(-c3cccc(NC(=O)NCc4ccccc4)c3)ncc(OCCCN)c21.O=C(O)C(F)(F)F	HepG2	True
O=C(N[C@@H](Cc1ccccc1)C(=O)NCc1cccc2ccccc12)c1ccc(O)c(-c2ccc(Cl)c(Cl)c2)c1	HepG2	True
CNC(=O)c1nc(-c2ccccc2)[nH]c1NC(C)=O	HepG2	True
CCNc1cc(C(=O)N[C@@H](Cc2ccccc2)[C@H](O)CNC2(CC)CCCCC2)cc(N2CCCCS2(=O)=O)c1.Cl	HepG2	True
CC1(CCCCN2CCC(c3c[nH]c4cnccc34)CC2)C(=O)Nc2cccc(Cl)c21 (centres undefined)	HepG2	False
CCC[C@@H]([C@@H](CC(C)C)C(=O)N[C@H](C(=O)Nc1nccs1)C(C)(C)SCCNC(=O)OCC)N(O)C=O	HepG2	True
COc1ccc2c(c1)C(C)(CCCN(C)C)C(=O)N2C.O=C(O)C(=O)O (centres undefined)	HepG2	True
Br.Oc1ccc(CCNCCCCCCNCCc2ccc(Cl)c(Cl)c2)cc1O	HepG2	False
Cc1sc2ncnc(Sc3nnc(N)s3)c2c1C	HepG2	True
Fc1ccc2[nH]c(-c3ccc(-c4ccc(CN5CCCCC5)cc4)cc3)nc2c1.O=C(O)C(F)(F)F	HepG2	False
O=C(Nc1ccc(C(F)(F)F)cc1)NC1CCN(c2ccnc3cc(Cl)ccc23)C1.O=C(O)C(F)(F)F (centres undefined)	HepG2	False
CC(C)Sc1nncc(-c2cnnc(SC(C)C)n2)n1	HepG2	True
CCc1nc2nc(C)cc(Nc3ccc4c(c3)OCCO4)n2n1	HepG2	True
Cc1ccc(Nc2cc(C)nn2-c2nc(C)cc(O)n2)cc1	HepG2	False

Provenance of the data: ChEMBL document CHEMBL1157539
